# Test system: EV 71 strain SZ-98 (genotype C4)
# Protocol Notes: Anti EV 71 activity assay (CPE, Reed & Muench) in Vero cells, strain SZ-98
# Type: cell-based, Enterovirus 71
# Test Context: selectivity index TC50/IC50, strain SZ-98; "-" stands for no antiviral selectivity
# Protocol: The EV 71 was divided into three genotypes A, B and C based on nucleotide sequence comparisons, and genotypes B and C were subdivided into B1-B5 and C1-C5 [6, 10]. Genotype C is the most common genotype found in mainland China, especially the C4 subgenotype. Consequently, the intermediate compounds 1a, 1c and 1e, and the final products 2a–c, 3a–g, and 5a–f were evaluated for their anti-EV 71 activity in Vero cells against genotypes C4 (strains SZ-98 and JS-52-3), C2 (strain H) and A (strain BrCr). […]
Measured Attribute: SI SZ-98
Form field (numeric): enter value without unit.

COc1ccc(C(=O)Nc2ccc(Cl)cc2)cc1N; 36
COc1ccc(C(=O)Nc2ccc(Cl)cc2)cc1N(C)C; 7.0
CCC(=O)Nc1cc(C(=O)Nc2ccc(Br)cc2)ccc1OC; 47

From here, focus on the item given below.
Query block: SI SZ-98 for `CCC(=O)Oc1cc(C(=O)N(C)c2ccc(Cl)cc2)ccc1OC` ?
Result block: 1.4

###

# Tested on: Vero cells
# Protocol Notes: Cytotoxicity determination in Vero cells monitored by cytopathic effect (CPE)
# Type: cell-based
# Test Context: 48 h, Reed & Muench, concentration that inhibits 50% cellular growth, average ± SD, n=3
Lab note - cut at 500 µM for TC50: met if strictly below, not met if not.

Examples with answers:
COc1ccc(C(=O)Nc2ccc(Cl)cc2)cc1N; not met
COc1ccc(C(=O)Nc2ccccc2)cc1N; not met
CCCNc1cc(C(=O)Nc2ccccc2)ccc1OC; met

Query block: Find out if reported TC50 for `CCCNc1cc(C(=O)Nc2ccc(Cl)cc2)ccc1OC` is less than 500 µM
Result block: met

Query block: Can you handle `CCCNc1cc(C(=O)Nc2cc(OC)c(OC)c(OC)c2)ccc1OC` next?
Result block: not met

Query block: Can you handle `CCC(=O)Nc1cc(C(=O)Nc2ccc(Br)cc2)ccc1OC` next?
Result block: not met

Query block: Can you handle `CCC(=O)Oc1cc(C(=O)N(C)c2ccc(Cl)cc2)ccc1OC` next?
Result block: met

Query block: Can you handle COc1ccc(C(=O)NC2CCCCC2)cc1NC(=O)C(C)F (stereo not shown) next?
Result block: not met

Query block: Can you handle `CNc1cc(C(=O)Nc2ccccc2)ccc1OC` next?
Result block: not met

Query block: Can you handle `COc1ccc(C(=O)Nc2ccc(Cl)cc2)cc1OC(C)=O` next?
Result block: met

###

# System: EV 71 strains SZ-98, JS-52-3, H, BrCr
# Protocol Notes: Anti EV 71 activity assay in Vero cells, summary over the four strains tested
# Assay type: cell-based, Enterovirus 71
# Test Context: TC50/IC50, range over the EV 71 strains tested
Measured selectivity index (SI) values (range over strains), listed per entry.

COc1ccc(C(=O)Nc2ccc(Cl)cc2)cc1N [Compound 1c]; 10–36
CCCNc1cc(C(=O)Nc2cc(OC)c(OC)c(OC)c2)ccc1OC [Compound 3g]; 16–35
CCC(=O)Nc1cc(C(=O)Nc2ccc(Br)cc2)ccc1OC [Compound 5c]; 16–63

From here, focus on the item given below.
Query block: selectivity index (SI) values (range over strains) for COc1ccc(C(=O)Nc2ccc(Br)cc2)cc1N [Compound 1e] ?
Result block: 51–110

###

Measured Attribute: melting point

In the examples that follow, each entry is paired with its recorded melting point.
COc1ccc(C(=O)Nc2ccc(Cl)cc2)cc1OC(C)=O [Compound 5e]; 177 to 179 °C
COc1ccc(C(=O)Nc2ccc(Cl)cc2)cc1N(C)C [Compound 3b]; 160 to 162 °C
CCCNc1cc(C(=O)Nc2ccccc2)ccc1OC [Compound 3e]; 121 to 123 °C
COc1ccc(C(=O)Nc2ccccc2)cc1OC(C)=O [Compound 5f, 4-Methoxy-N-phenyl-3-acetoxybenzamide]; 153 to 155 °C
COc1ccc(C(=O)Nc2ccc(Br)cc2)cc1N [Compound 1e]; 190 to 192 °C
COc1ccc(C(=O)Nc2cc(OC)c(OC)c(OC)c2)cc1N(C)C [Compound 3d]; 120 to 122 °C
CCCNc1cc(C(=O)Nc2cc(OC)c(OC)c(OC)c2)ccc1OC [Compound 3g]; 164 to 167 °C
CNc1cc(C(=O)Nc2cc(OC)c(OC)c(OC)c2)ccc1OC [Compound 3c]; 147 to 148 °C

Query block: melting point for CCCNc1cc(C(=O)Nc2ccc(Cl)cc2)ccc1OC [Compound 3f] ?
Result block: 168 to 171 °C

Query block: Can you handle COc1cc(C(=O)Nc2ccccc2)ccc1NC(=O)C(C)F (stereo not drawn) [Compound 2c] next?
Result block: 142 to 143 °C

###

# System: EV 71 strain SZ-98 (genotype C4)
# Protocol Notes: Anti EV 71 activity assay (CPE, Reed & Muench) in Vero cells, strain SZ-98
# Format: cell-based, Enterovirus 71
# Test Context: EV 71 strain SZ-98, Vero cells, 100 TCID50, CPE; average ± SD, n=3
# Procedure: The EV 71 was divided into three genotypes A, B and C based on nucleotide sequence comparisons, and genotypes B and C were subdivided into B1-B5 and C1-C5 [6, 10]. Genotype C is the most common genotype found in mainland China, especially the C4 subgenotype. Consequently, the intermediate compounds 1a, 1c and 1e, and the final products 2a–c, 3a–g, and 5a–f were evaluated for their anti-EV 71 activity in Vero cells against genotypes C4 (strains SZ-98 and JS-52-3), C2 (strain H) and A (strain BrCr). […]
Measured Attribute: pIC50
The read-out pIC50 is expressed as -log10 of concentration in moles per litre.

COc1ccc(C(=O)Nc2ccc(Cl)cc2)cc1OC(C)=O; 4.89

From here, focus on the item given below.
Query block: pIC50 for `CCC(=O)Nc1cc(C(=O)Nc2ccc(Br)cc2)ccc1OC` ?
Result block: 4.96

###

# System: Vero cells
# Protocol Notes: Cytotoxicity determination in Vero cells monitored by cytopathic effect (CPE)
# Assay type: cell-based
# Test Context: 48 h, Reed & Muench, concentration that inhibits 50% cellular growth, average ± SD, n=3
Measured Attribute: log10(TC50) (log10 of the value in µM)
Lab note - TC50 converted to log10 from values in µM.

In the examples that follow, each entry is paired with its recorded log10(TC50).
COc1ccc(C(=O)Nc2ccc(Br)cc2)cc1N [Compound 1e]; 2.79
CNc1cc(C(=O)Nc2cc(OC)c(OC)c(OC)c2)ccc1OC [Compound 3c]; 2.45

Query block: Recall the recorded log10(TC50) for COc1ccc(C(=O)Nc2ccccc2)cc1OC(C)=O [Compound 5f, 4-Methoxy-N-phenyl-3-acetoxybenzamide] with Vero cells and state it.
Result block: 2.56

Query block: Can you handle CCOC(=O)c1ccc(OCCC2CCN(c3ccc(C)nn3)CC2)cc1 [Pirodavir, pirodavir, reference compound] next?
Result block: 1.49

Query block: Can you handle COc1ccc(C(=O)Nc2ccc(Cl)cc2)cc1N(C)C [Compound 3b] next?
Result block: 2.71

###

# Tested on: EV 71 strain SZ-98 (genotype C4)
# Protocol Notes: Anti EV 71 activity assay (CPE, Reed & Muench) in Vero cells, strain SZ-98
# Assay type: cell-based, Enterovirus 71
# Test Context: selectivity index TC50/IC50, strain SZ-98; "-" stands for no antiviral selectivity
Measured Attribute: SI SZ-98

In the examples that follow, each entry is paired with its recorded SI SZ-98.
CNc1cc(C(=O)Nc2cc(OC)c(OC)c(OC)c2)ccc1OC; 4.3
COc1ccc(C(=O)Nc2ccc(Br)cc2)cc1N; 51
COc1ccc(C(=O)Nc2ccc(Cl)cc2)cc1OC(C)=O; 37
CCC(=O)Nc1cc(C(=O)Nc2ccc(Cl)cc2)ccc1OC; > 16
COc1ccc(C(=O)Nc2ccccc2)cc1OC(C)=O [Compound 5f, 4-Methoxy-N-phenyl-3-acetoxybenzamide]; 4.0

From here, focus on the item given below.
Query block: SI SZ-98 for COc1cc(C(=O)Nc2ccccc2)ccc1NC(=O)C(C)F (stereo not drawn) ?
Result block: >5.8

###

Measured Attribute: melting point

CNc1cc(C(=O)Nc2ccccc2)ccc1OC; 170 to 172 °C
CCC(=O)Oc1cc(C(=O)N(C)c2ccc(Cl)cc2)ccc1OC; 139 to 141 °C
COc1ccc(C(=O)NC2CCCCC2)cc1NC(=O)C(C)F (centres unmarked); 192 to 194 °C
CCC(=O)Nc1cc(C(=O)Nc2ccc(Cl)cc2)ccc1OC; 130 to 132 °C

From here, focus on the item given below.
Query block: melting point for `COc1ccc(C(=O)Nc2ccc(Cl)cc2)cc1N` ?
Result block: 152 to 154 °C

###

# Tested on: Vero cells
# Protocol Notes: Cytotoxicity determination in Vero cells monitored by cytopathic effect (CPE)
# Assay type: cell-based
# Test Context: 48 h, Reed & Muench, concentration that inhibits 50% cellular growth, average ± SD, n=3
Measured Attribute: TC50

COc1ccc(C(=O)Nc2cc(OC)c(OC)c(OC)c2)cc1N(C)C; >560 µM
CCC(=O)Nc1cc(C(=O)Nc2ccccc2)ccc1OC; >670 µM
CCC(=O)Nc1cc(C(=O)Nc2ccc(Cl)cc2)ccc1OC; >600 µM

From here, focus on the item given below.
Query block: TC50 for COc1cc(C(=O)Nc2ccccc2)ccc1NC(=O)C(C)F (stereo not shown) ?
Result block: >630 µM
